EC50: recorded values
Tested on: HCV gt 1b replicon
assay-details: HCV replicon assay, compound inhibitory potency (Replicon EC50)
Assay type: cell-based
condition-description: Hepatitis C virus, GT1B, 10% fetal bovine serum, read-out: gt 1b Replicon EC50 10% FBS
# unit: nM | format: bare number

Consider the following illustrative entries.
| structure-notation | EC50, nM |
| --- | --- |
| COc1ccc2nc3c(nc2c1)O[C@@H]1C[C@H]2C(=O)N[C@]4(C(=O)NS(=O)(=O)C5CC5)C[C@H]4/C=C\CCCCC[C@H](NC(=O)O[C@@H]4CCC[C@H]4CCCCC3)C(=O)N2C1 | 2 |
| O=C1N[C@H]2CCCCC/C=C\[C@@H]3C[C@@]3(C(=O)NS(=O)(=O)C3CC3)NC(=O)[C@@H]3C[C@H](CN3C2=O)Oc2nc3ccccc3nc2CCCCC[C@@H]2C[C@H]2O1 | 1 |
| COc1ccc2nc3c(nc2c1)O[C@@H]1C[C@H]2C(=O)N[C@]4(C(=O)NS(=O)(=O)C5CC5)C[C@H]4/C=C\CCCCC[C@H](NC(=O)O[C@@H]4C[C@H]4CCCCC3)C(=O)N2C1 | 2 |

In the following, a different compound is considered.
Entry COc1ccc2nc3c(nc2c1)O[C@@H]1C[C@H]2C(=O)N[C@]4(C(=O)NS(=O)(=O)C5(C)CC5)C[C@H]4/C=C\CCCCC[C@H](NC(=O)O[C@@H]4CCC[C@H]4CCCCC3)C(=O)N2C1 , system HCV gt 1b replicon: what EC50 was measured?
2
